tested on: T-47D breast; assay: NCI-60 one-dose screen, 48 h (100 = growth as untreated, 0 = no growth, -100 = all killed); details: 10 µM unless noted
Compounds without any hit were thinned out: in the full panel of roughly 83,000, 20% have a hit.
Decision: growth >= 30% yields Condition met, all other cases yield Condition not met.

These recorded examples may help you get a feel for the data.
COc1cc2c(c(OC)c1)C1c3cc(OC)ccc3NC(=O)N1CC2 (centres undefined) :: Condition met
Cc1ccc(Oc2c(/C=N/NC(=O)Cn3c(=O)sc4ccccc43)c(C)nn2-c2ccccc2)cc1 :: Condition not met
COc1cc(/C=C/C(=O)/C=C/c2ccc(-n3ccnc3C)cc2)ccc1O :: Condition met

Q) Determine whether this compound has growth no lower than 30%: COc1ccc(-c2cc(-c3ccc(OC)c(OC)c3)nc(SCCCCCC(=O)NO)n2)cc1
A) Condition not met

Q) Determine whether this compound has growth no lower than 30%: CCN=Cc1c(O)c(O)c(C(C)C)c2cc(C)c(-c3c(C)cc4c(C(C)C)c(O)c(O)c(C=NCC)c4c3O)c(O)c12
A) Condition met
